Source: patent US20240309087A1

Molecular target: T1, human CD112R on Jurkat CD112R effector cells (human, UniProt Q6DKI7 1-326)
T1 sequence (looked up): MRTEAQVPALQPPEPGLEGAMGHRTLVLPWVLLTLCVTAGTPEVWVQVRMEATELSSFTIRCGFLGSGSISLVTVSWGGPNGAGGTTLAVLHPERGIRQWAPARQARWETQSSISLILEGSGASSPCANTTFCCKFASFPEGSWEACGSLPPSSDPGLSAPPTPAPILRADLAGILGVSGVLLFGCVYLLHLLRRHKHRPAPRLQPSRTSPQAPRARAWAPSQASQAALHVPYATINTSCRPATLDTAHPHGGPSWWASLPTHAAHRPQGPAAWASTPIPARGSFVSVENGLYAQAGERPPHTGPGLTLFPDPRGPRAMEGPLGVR
Experiment: cell-based or functional assay
Metric name: EC50, CD112R/CD112 NFAT-luciferase reporter (µg/mL)

>  <Binder>
3D2.1 (antibody, V domains shown) VH: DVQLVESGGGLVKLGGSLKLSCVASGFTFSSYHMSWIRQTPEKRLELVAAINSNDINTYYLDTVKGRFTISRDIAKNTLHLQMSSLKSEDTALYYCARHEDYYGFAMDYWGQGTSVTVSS VL: DIQLTQSPASLSVSVGETVTITCRVSANIYSNLVWYHQRQGKSPQLLVYGGTNLADGVPSRFSGSGSGTQFSLKINSLQSEDFGSYHCQHFWSTPYTFGGGTKLEIK

>  <Observed value>
0.0493

$$$$
>  <Binder>
4E5.1 (antibody, V domains shown, murine hybridoma antibody) VH: EVMLVESGGGLVKPGGSLKLSCAASGFTFSNYIMSWVRQTPDMRLEWVATISSGGSSTYYVDRVKGGFPFSRDSVKYILYVHTSSLRSADTAIYYCAKHEDWDPLYYYSMDYWGQGTSVTVSS VL: QIVLTQSPTVMSASPGDKVTMTCSASSSVSYMYWFQQKPGSSPRLLIYDTSHLAFGVPSRFSGSRSGTSYSLTISRMEAEDTATYYCQQWTTYPLTFGAGTKLELK

>  <Observed value>
0.0552

$$$$
>  <Binder>
7C2.1 (antibody, V domains shown) VH: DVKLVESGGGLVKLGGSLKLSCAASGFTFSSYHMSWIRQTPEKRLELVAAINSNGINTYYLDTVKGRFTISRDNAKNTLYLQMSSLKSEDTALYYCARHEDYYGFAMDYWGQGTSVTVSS VL: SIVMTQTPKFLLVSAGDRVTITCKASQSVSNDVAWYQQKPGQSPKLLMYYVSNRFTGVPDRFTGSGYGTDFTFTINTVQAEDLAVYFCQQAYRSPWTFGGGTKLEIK

>  <Observed value>
0.0379

$$$$
>  <Binder>
2G10.1 (antibody, V domains shown, murine hybridoma antibody) VH: QVQLQQSGAELVKPGASVKLSCKASGYTFTSHYMYWLKQRPGQGLEWIGEINPSNGDTKFNEKFKSKATLTVDKSSSTAYMQLSSLTSEDSAVYYCTREKDAFSALDYWGQGTSVTDSS VL: DIQMIQSPSSMFASLGDRVSLSCRASQGIRGHLDWYQQKPGGTIKLLIYSTSILNFGVPSRFSGSGSGSDYSLTISSLESEDFADYYCLQRNAYPLTFGAGTKLELK

>  <Observed value>
0.0729

$$$$
